# Test system: Plasmodium berghei
# method description: Screen against P. berghei liver stage (PbLuc), transformed with Luciferase, at 2uM
# Assay type: functional, HepG2
# reported conditions: tested at 2 uM
The whole screen tested about 68,000 compounds, of which about 2,700 (4%) showed an effect of 50% or more. Only a selection was taken, and strong results are over-represented in it overall.
Label scheme for INHIBITION: bucket 1: < -20%; bucket 2: ≥ -20% and < 40%; bucket 3: ≥ 40%

compound="Cc1nn(C)c2ncnc(N3CCCC(OCc4cccnc4)C3)c12 (stereo not drawn)" system="Plasmodium berghei" class_label="bucket 3"
compound=CCc1noc(CN(CC(=O)N2CCCCC2)c2ccc(C)cc2)n1 system="Plasmodium berghei" class_label="bucket 2"

# ---- query compound ----
Lab log: CC(C)(C)n1ncc(NCCc2ccccc2C(F)(F)F)c(Cl)c1=O — assign INHIBITION category
bucket 1
